Cited source: patent US20110059093A1

- Experimental Target: T1, Tau fragment Ser-Ile-Asp-Met-Val-Asp-Ser-Pro-Gln-Leu-Ala-Thr-Leu-Ala-Asp (SEQ ID NO:10) (human, also: biotinylated, site not given here)
- T1 construct: Biotinylated control peptide on streptavidin plates; also called nonphosphorylated Tau fragment; non-phosphorylated Tau (416-430)
- T1 peptide: SIDMVDSPQLATLAD
- Procedure Text: ELISA, biotinylated peptide on streptavidin plate, anti-rabbit IgG detection
Ends that are not written are not given here.
Property: EC50 (µg/mL)
# number only, unit µg/mL dropped from output

binder="anti-Tau pS422 antibody Mab 019 (antibody, V domains shown, Rabbit monoclonal antibody, recombinantly expressed in HEK293 with rabbit kappa and gamma constant regions) VH: QSVEESGGRLVTPGTPLTLTCTVSGIDLSSYTMNWVRQAPGKGLDWIGFINSGGYTSYASWTRGRFTISKTSTTVDLRITSPTTEDTATYFCARYGGGSGFDLWGPGTLVTVSS VL: QVLTQTASSVSAAVGGTVTINCQSSQSVYNNRLAWYQQKPGQPPKLLIYKASTLASGVPSRFKGSGSGTQFTLTISDLECDDAATYYCAGGYINIFAFGGGTEVVVK" units_symbol=µg/mL observed_measurement=1.08
binder="anti-Tau pS422 antibody Mab 097 (antibody, V domains shown, Rabbit monoclonal antibody, recombinantly expressed in HEK293 with rabbit kappa and gamma constant regions) VH: QSVEESGGRLVTPGTPLTLTCTVSGIDLSSYSITWVRQAPGKGLEYIGFIGTGGSTYYASWAKGRFTISRTSTTVDLKITSPTTEDTATYFCARGGDLWGPGTLVTVSS VL: QVLTQTASSVSAAVGGTVTINCQSSQNVYNNNKLAWFQQKPGQPPKRLIYGASTLASGVSSRFKGSGSGTQFTLTISDLECDDAATYYCLGGYSGNIYTFGGGTEVVVK" units_symbol=µg/mL observed_measurement=1.28
binder="anti-Tau pS422 antibody Mab 086 (antibody, V domains shown, Rabbit monoclonal antibody, recombinantly expressed in HEK293 with rabbit kappa and gamma constant regions) VH: QSVEESGGRLVTPGTPLTLTCTVSGFSLSSNAINWVRQAPGKGLEWIGYIAVSGNTYYASWAKGRFTISKASTTVDLKMTSPTAEDTGTYFCGKSNIWGPGTLVTVSL VL: QVLTQTTSPVSAAVGSTVTISCQSSQSVRTNKLAWFQQKPGQPPKRLIYSASTLDFGVPSRFSASGSGTQFTLTISDVQCDDAATYYCLGYFDCSIADCVAFGGGTEVVVK" units_symbol=µg/mL observed_measurement=0.266

*Q* I would be grateful if you could share the reported EC50 for anti-Tau pS422 antibody Mab 005 (antibody, V domains shown, Rabbit monoclonal antibody, recombinantly expressed in HEK293 with rabbit kappa and gamma constant regions) VH: QSVEESGGRLVTPGTPLTLTCTVSGLSLSSNAINWVRQAPGKGLEWIGYISTSGNTYYASWAKGRFTISKTSTTVDLKITSPTTEDTATYFCGRGDLWGPGTLVTVSS VL: QVLTQTASPVSAAVGSTVTINCQASQSVYKNNYLAWFQQKPGQPPKRLIYSASTLASGVSSRFKGSGSGTQFTLTISDVQCDDAATYYCLGSCDSSSNNCVAFGGGTEVVVK .
*A* 3.73

*Q* For anti-Tau pS422 antibody Mab 085 (antibody, V domains shown, Rabbit monoclonal antibody, recombinantly expressed in HEK293 with rabbit kappa and gamma constant regions) VH: QSVEESGGRLVTPGTPLTLTCTVSGLSLSSNAINWVRQAPGKGLEWIGYIAVSGNTYYASWAKGRFTISKASTTVDLKMTSPTAEDTGTYFCGKSNIWGPGTLVTVSL VL: QVLTQTASPVSAAVGITVTISCQSSQSVRTNKLAWFQQKPGQPPKRLIYSASTLDSGVPSRFSASGSGTQFTLTISDVQCDDAATYYCLGYYDCSIADCVAFGGGTEVVVK , what is its reported EC50?
*A* 0.146
